Reference source: patent US10766952B2

- Target Entity: T1, rat α-CGRP (Rattus norvegicus, UniProt P01256)
- T1 construct: rat α (1-37); host or cells: synthetic peptide
- T1 sequence (P01256 83-119 limits assumed): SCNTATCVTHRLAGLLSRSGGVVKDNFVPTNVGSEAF
- Assay Protocol: Biacore affinity of antibody G1 Fab and variants to rat α-CGRP
- Type: binding
- Condition Notes: 37° C., Fab, screening mode unless underlined
Measurement Label: α-rat koff (s⁻¹)
Give the value in s⁻¹ but do not write s⁻¹ after it.

A selection of reference data follows.
>  <Molecule>
M33: G1 variant: L1 R28N,T30G; H2 E54K,A57N,S58G; HC-FW3 L99T,A100V (antibody, V domains shown) VH: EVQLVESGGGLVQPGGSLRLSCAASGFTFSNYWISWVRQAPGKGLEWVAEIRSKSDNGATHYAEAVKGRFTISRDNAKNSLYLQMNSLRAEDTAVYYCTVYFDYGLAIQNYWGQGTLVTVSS VL: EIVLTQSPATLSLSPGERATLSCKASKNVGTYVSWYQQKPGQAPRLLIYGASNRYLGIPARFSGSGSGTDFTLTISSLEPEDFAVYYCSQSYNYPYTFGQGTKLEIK

>  <α-rat koff, s⁻¹>
0.00922

$$$$
>  <Molecule>
M62: G1 variant: L1 R28N,T30G; L2 A51H,L56T; H2 E54K,A57N,S58E; HC-FW3 L99T,A100V (antibody, V domains shown) VH: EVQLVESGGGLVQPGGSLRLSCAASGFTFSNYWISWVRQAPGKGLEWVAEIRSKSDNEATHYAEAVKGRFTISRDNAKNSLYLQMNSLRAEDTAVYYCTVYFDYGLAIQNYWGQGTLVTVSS VL: EIVLTQSPATLSLSPGERATLSCKASKNVGTYVSWYQQKPGQAPRLLIYGHSNRYTGIPARFSGSGSGTDFTLTISSLEPEDFAVYYCSQSYNYPYTFGQGTKLEIK

>  <α-rat koff, s⁻¹>
0.00575

$$$$
>  <Molecule>
M28: G1 variant: L1 R28N,T30D; H2 E54R,A57N; HC-FW3 L99T,A100V (antibody, V domains shown) VH: EVQLVESGGGLVQPGGSLRLSCAASGFTFSNYWISWVRQAPGKGLEWVAEIRSRSDNSATHYAEAVKGRFTISRDNAKNSLYLQMNSLRAEDTAVYYCTVYFDYGLAIQNYWGQGTLVTVSS VL: EIVLTQSPATLSLSPGERATLSCKASKNVDTYVSWYQQKPGQAPRLLIYGASNRYLGIPARFSGSGSGTDFTLTISSLEPEDFAVYYCSQSYNYPYTFGQGTKLEIK

>  <α-rat koff, s⁻¹>
0.00125

$$$$

For this molecule ( M34: G1 variant: L1 R28N,T30G; H2 E54K,A57N,S58T; HC-FW3 L99T,A100V (antibody, V domains shown) VH: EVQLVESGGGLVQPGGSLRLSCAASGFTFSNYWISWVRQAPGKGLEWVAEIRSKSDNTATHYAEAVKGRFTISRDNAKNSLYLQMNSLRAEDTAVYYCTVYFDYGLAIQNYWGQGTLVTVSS VL: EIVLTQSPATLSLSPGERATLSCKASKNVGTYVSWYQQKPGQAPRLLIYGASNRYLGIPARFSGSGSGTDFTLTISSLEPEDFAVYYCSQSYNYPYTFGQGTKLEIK ), measured α-rat koff is 0.00217

// α-rat koff value for M24: G1 variant: L1 R28L; HC-FW3 L99T,A100V (antibody, V domains shown) VH: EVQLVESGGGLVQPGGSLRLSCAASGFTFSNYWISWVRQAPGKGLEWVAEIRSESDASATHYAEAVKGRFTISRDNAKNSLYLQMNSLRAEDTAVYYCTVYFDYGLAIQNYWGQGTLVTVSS VL: EIVLTQSPATLSLSPGERATLSCKASKLVTTYVSWYQQKPGQAPRLLIYGASNRYLGIPARFSGSGSGTDFTLTISSLEPEDFAVYYCSQSYNYPYTFGQGTKLEIK : 0.00104
